- Target desc: T1, human CD7 (cluster of differentiation 7) (human, UniProt P09564 26-240)
- T1 construct: also called CD7 target antigen; CD7 surface marker
- T1 sequence: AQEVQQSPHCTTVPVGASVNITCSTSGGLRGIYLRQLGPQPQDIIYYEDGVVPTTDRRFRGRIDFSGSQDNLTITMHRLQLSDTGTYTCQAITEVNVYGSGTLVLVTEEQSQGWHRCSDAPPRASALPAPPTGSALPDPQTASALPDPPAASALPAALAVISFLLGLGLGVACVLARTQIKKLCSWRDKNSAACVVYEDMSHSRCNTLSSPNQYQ
- Protocol: flow cytometry titration on human CD8+ T cells, one-site specific binding fit
Exercise: for every item that follows, state its recorded pKd.
Answers are plain numbers, as −log10 of the molar value.

Worked examples follow.
Binder	pKd
SEQ ID NO 7 (VHH, Single domain antibody against human CD7; also called anti-CD7 sdAb) VHH: QVQLQESGGGLVQAGDSLRLSCAASGLTVSMYGMGWFRQAPGKEREFVADISRGGGSTSYTDSVKGRFTISRDNAKNTLYLQMNSLKPEDTAVYSCAARKYAHYEYRGQGTQVTVSS	7.96
SEQ ID NO 8 (VHH, Single domain antibody against human CD7; also called anti-CD7 sdAb) VHH: QVQLQESGGGLVQTGDSLRLSCAASGLTVSSYGMGWFRQAPGKEREFVADISRGGGSTLYADSVKGRFTISRDNLKNTLYLQMNSLKPEDTAVYSCAARKYAEWNYWGQGTQVTVSS	8.09
SEQ ID NO 13 (VHH, Single domain antibody against human CD7; also called anti-CD7 sdAb) VHH: QVQLQESGGGLVQSGGSLRLSCAASRRIFEINVMGWYRQAPEKQRELVGTITSFGGTNYADSVKGRFTISADYAKNTMYLQMNSLNPEDTAVYYCNAHYFSNDYWGQGTQVTVSS	8.41
SEQ ID NO 9 (VHH, Single domain antibody against human CD7; also called anti-CD7 sdAb) VHH: QVQLQESGGGLVQAGDSLRLSCAASGLTVSSYGMGWFRQAPGKEREFVADISRGGGSTLYADSVKGRFTISRDNGKNTLYLQINSLKPEDTAVYSCAARKYAEWDYWGQGTQVTVSS	8.39
SEQ ID NO 2 (VHH, Single domain antibody against human CD7; also called anti-CD7 sdAb) VHH: QVQLQESGGGLVQAGGSLRLSCAASGRTFSDYLMGWFRQTPGKEREFVAAIYWNAGSTYYADSVKGRFTISRDNTKNTMYLQMNSLKPEDTAVYYCAAGQRGLAYARTYDYDYWGQGTQVTVSS	8.20

We next turn to a different binder, shown below.
Please fill in: pKd reported for SEQ ID NO 4 (VHH, Single domain antibody against human CD7; also called anti-CD7 sdAb) VHH: QVQLQESGGGLVQAGDSLRLSCAASGLTVSSYGMGWFRQAPGKEREFVVDISRGGGSTSYADSVKGRFTIARDNAKNTLYLQMNSLKPEDTAVYSCAARKYAHYEYWGQGTQVTVSS = 8.25
